Quick reference for abundance fitness among some variants
B1: POU domain, class 3, transcription factor 4, residues 280 to 335; numbered along this chain, P49335 (parent)
chain: KKRTSIEVSVKGVLETHFLKCPKPAAQEISSLADSLQLEKEVVRVWFCNRRQKEKR

Variants of: B1
Assay: abundance fitness (aPCA) (normalised: wild type 0, dead -1); higher = more abundant; growth selection in yeast, the domain comes from the species named
Details: Homo sapiens

variant.spec	experimental.value
V43D	-0.614

Exam item: Form field: reported abundance fitness of W46N
Marked response: -0.816

Exam item: Please report the recorded abundance fitness for R51Y .
Marked response: -0.193

Exam item: Can you share its abundance fitness? I mean this variant: S31W
Marked response: -0.467

Exam item: Suppose we examine the variant K11R ; what abundance fitness value has been reported?
Marked response: -0.076

Exam item: I'd like to know its abundance fitness. The variant in question is E28H
Marked response: -0.63

Exam item: Recorded abundance fitness for E41Y , please?
Marked response: -0.819

Exam item: # input variant: V42Y ; wanted: its abundance fitness
Marked response: -0.396

Exam item: Data request, read-out abundance fitness, for S30I
Marked response: -0.148

Exam item: Recorded abundance fitness of V42K , please.
Marked response: -0.596

Exam item: What measured abundance fitness goes with P22H ?
Marked response: -0.513
